B1: library; numbered along this chain (parent)
chain: MAAAGGARLLRAASAVLGGPAGRWLHHAGSRAGSSGLLRNRGPGGSAEASRSLSVSARARSSSEDKITVHFINRDGETLTTKGKVGDSLLDVVVENNLDIDGFGACEGTLACSTCHLIFEDHIYEKLDAITDEENDMLDLAYGLTDRSRLGCQICLTKSMDNMTVRVPETVADARQSIDVGKTS

- Variants of: B1
- Run description: scaled log2 fold change in cell abundance, elesclomol vs control (0 = silent mean, 1 = nonsense mean) (scaled log2 ratio); higher = higher viability under elesclomol (loss of FDX1 cuproptosis function);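 note: variant abundance is its share of total variant reads in each endpoint sample, from next-generation sequencing of the integrated ORF PCR-amplified out of genomic DNA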
- Recorded conditions: with ABC1 FDX1 KO; elesclomol 5 nM; glucose 10 mM; 14 days
Each entry below carries its reported scaled log2 fold change.

>  <Mutation code>
S54D

>  <scaled log2 fold change>
-0.0274

$$$$
>  <Mutation code>
V165S

>  <scaled log2 fold change>
0.00333

$$$$
>  <Mutation code>
V55H

>  <scaled log2 fold change>
0.0403

$$$$
>  <Mutation code>
G44C

>  <scaled log2 fold change>
-0.366

$$$$
>  <Mutation code>
I130M

>  <scaled log2 fold change>
0.336

$$$$
>  <Mutation code>
D146M

>  <scaled log2 fold change>
-0.332

$$$$
>  <Mutation code>
R166K

>  <scaled log2 fold change>
-0.502

$$$$
>  <Mutation code>
E133L

>  <scaled log2 fold change>
-0.204

$$$$
>  <Mutation code>
L17G

>  <scaled log2 fold change>
0.217

$$$$
>  <Mutation code>
A7W

>  <scaled log2 fold change>
0.0847

$$$$
>  <Mutation code>
K66Y

>  <scaled log2 fold change>
-0.0452

$$$$
>  <Mutation code>
L140Q

>  <scaled log2 fold change>
0.178

$$$$
>  <Mutation code>
I67R

>  <scaled log2 fold change>
0.504

$$$$
>  <Mutation code>
S184P

>  <scaled log2 fold change>
0.326

$$$$
>  <Mutation code>
L140T

>  <scaled log2 fold change>
-0.682

$$$$
>  <Mutation code>
L9E

>  <scaled log2 fold change>
0.282

$$$$
>  <Mutation code>
F71N

>  <scaled log2 fold change>
1.07

$$$$
